Target: c-AMP phosphodiesterase (erythrocytes)
Assay: Inhibition of cyclic AMP phosphodiesterase (erythrocytes)
Conditions: phosphodiesterase extracted from erythrocytes, phosphate buffer pH 7.4, radiochemical procedure
Record form. Attribute: pKi. Fill in for each entry.
pKi here: minus log base 10 of the concentration, concentration in moles per litre.

Challenge: Reported pKi, compound CC(=O)Cn1cnc2c1c(=O)n(CC1CC1)c(=O)n2CC1CCCCC1 : ____
Response given: 5.64

Challenge: Entry CCCn1cnc2c1c(=O)n(CC1CC1)c(=O)n2CC1CC1 : reported pKi = ?
Response given: 5.28

Challenge: Consider the compound shown here: O=c1c2[nH]cnc2n(CC2CCCCC2)c(=O)n1CC1CCCCC1 What is its recorded pKi?
Response given: 5.77

====

Target: c-AMP phosphodiesterase (erythrocytes)
Experiment: Inhibition of cyclic AMP phosphodiesterase (erythrocytes)
Conditions: phosphodiesterase extracted from erythrocytes, phosphate buffer pH 7.4, radiochemical procedure
Exercise: state measured log10 of Ki for each of the molecules provided.
Please note: log10 values; quantity Ki; unit nM.

Challenge: Which value of log10 of Ki has been reported for O=c1c2[nH]cnc2n(C2CCCCC2)c(=O)n1C1CCCCC1 in the records?
Response given: 2.90

Challenge: Value lookup for log10 of Ki; key = O=c1c2[nH]cnc2n(CC2CCCCC2)c(=O)n1CC1CC1
Response given: 4.36

Challenge: I have this molecule here, O=c1c2[nH]cnc2n(CC2CCC2)c(=O)n1CC1CCC1 , and I need its recorded log10 of Ki.
Response given: 3.34

Challenge: Quick one: log10 of Ki of O=c1c2[nH]cnc2n(CC2CC2)c(=O)n1CC1CC1 ?
Response given: 3.76

Challenge: Look up log10 of Ki: CC(=O)Cn1cnc2c1c(=O)n(CC1CC1)c(=O)n2C1CCCC1
Response given: 3.30

Challenge: What value of log10 of Ki has been reported for the following molecule? O=c1c2c(ncn2CC2CC2)n(CC2CC2)c(=O)n1CC1CC1
Response given: 3.36

Challenge: Entry under review: CC(O)Cn1cnc2c1c(=O)n(CC1CCCC1)c(=O)n2CC1CCCC1 (centres unmarked) . Reported log10 of Ki?
Response given: 4.42

Challenge: Request the reported log10 of Ki associated with CC(O)Cn1cnc2c1c(=O)n(CC1CCC1)c(=O)n2CC1CCC1 (centres unmarked)
Response given: 4.13

Challenge: What log10 of Ki value was documented for this molecule, CC(=O)Cn1cnc2c1c(=O)n(CC1CCCCC1)c(=O)n2CC1CCCCC1 ?
Response given: 3.36

Challenge: So what does the record say about log10 of Ki for CCCn1cnc2c1c(=O)n(CC1CCC1)c(=O)n2CC1CCC1 ?
Response given: 3.38

Challenge: Query (molecule): CC(=O)Cn1cnc2c1c(=O)n(C1CCCCC1)c(=O)n2C1CCCCC1 ; field requested: log10 of Ki
Response given: 3.38

Challenge: What does the record list as log10 of Ki for CC(=O)Cn1cnc2c1c(=O)n(CC1CCCC1)c(=O)n2CC1CCCC1 ?
Response given: 3.11

Challenge: Would you kindly share the measured log10 of Ki for CC(=O)Cn1cnc2c1c(=O)n(CC1CC1)c(=O)n2CC1CC1 ?
Response given: 3.15

Challenge: Looking for the measured log10 of Ki of O=c1c2[nH]cnc2n(C2CCCC2)c(=O)n1CC1CC1 , can you help?
Response given: 3.92

Challenge: // returns reported log10 of Ki for input CC(=O)Cn1cnc2c1c(=O)n(CC1CCC1)c(=O)n2CC1CCC1
Response given: 2.18

Challenge: Would you mind telling me what log10 of Ki value was observed for O=c1c2[nH]cnc2n(C2CCC2)c(=O)n1C1CCC1 ?
Response given: 3.23

Challenge: Give its log10 of Ki value. Item: O=c1c2[nH]cnc2n(CC2CCCC2)c(=O)n1CC1CCCC1
Response given: 3.57
